TGI for assorted compounds
- Test system: HT29 colon
- experiment: NCI tumour cell line growth inhibition, 48 h
API: value field is a number in µM; no unit string.

# count of solved cases: 3
chemical_string=COc1ccc2c(c1OC)O/C(=C\c1ncc([N+](=O)[O-])n1C)C2=O data_value=5.02
chemical_string=COc1ccccc1N/C(SCc1ccccc1)=C(/C(Cl)=C(Cl)Cl)[N+](=O)[O-] data_value=42.4
chemical_string=C#C[C@]1(O)CC[C@H]2[C@@H]3CCc4cc(O)ccc4[C@H]3CC[C@@]21C data_value=54.4

Which TGI is reported for this compound? CC(C)(C)O/N=C/c1cc(NC(=S)c2ccsc2)ccc1Cl
26.1
